B1: TOR1AIP2 (parent)
chain: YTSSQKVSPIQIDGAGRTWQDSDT

Variants of: B1
METHOD_DESCRIPTION: protein stability index of a GFP-peptide fusion (GPS, HEK-293T) (PSI 1-6); higher = more stable;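 further: lentivirally expressed fusions sorted by FACS into six bins by GFP to DsRed ratio, PSI derived from sequencing read proportions per bin multiplied by bin number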
TEST_PARAMETERS: c terminus: a fixed tail appended

| SEQUENCE_CODE | protein stability index |
| --- | --- |
| YTSSQKVSPIQIDGAGRTWRDSDT [Q20R] | 2.62 |
| YTSSQKVSPIQIDGAGRTMQDSDT [W19M] | 4.34 |
| YTSCQKVSPIQIDGAGRTWQDSDT [S4C] | 2.78 |
| YTSSQQVSPIQIDGAGRTWQDSDT [K6Q] | 3.76 |
| YTSSQKVSPIQINGAGRTWQDSDT [D13N] | 3.15 |
| YTASQKVSPIQIDGAGRTWQDSDT [S3A] | 3 |
| YTSSQKVSPIQIDGAGRTWQTSDT [D21T] | 2.62 |
| YTSSQKVSPIQIDYAGRTWQDSDT [G14Y] | 2.78 |
| YTSSQKVSLIQIDGAGRTWQDSDT [P9L] | 3.74 |
| YTSSQKVSPIQIDWAGRTWQDSDT [G14W] | 3.16 |
| YTSSQKVSPIQIDGAGRTWQDGDT [S22G] | 2.74 |
| YTSSQKVSPIQIDGAGRTWEDSDT [Q20E] | 4.31 |
| YTSSQKKSPIQIDGAGRTWQDSDT [V7K] | 4.03 |
| YTSSQKVSVIQIDGAGRTWQDSDT [P9V] | 2.66 |
| YTSSQKVSPIQIDGAGRTWLDSDT [Q20L] | 2.58 |
| YTSSQKVSPIQIDGAGRTVQDSDT [W19V] | 4.56 |
| CTSSQKVSPIQIDGAGRTWQDSDT [Y1C] | 4.22 |
| YTSSQKVSPIQIDGAGRPWQDSDT [T18P] | 3.38 |
| YTSSQKVSPIQIDGEGRTWQDSDT [A15E] | 3.52 |
| YTSSQKVSPIQDDGAGRTWQDSDT [I12D] | 4.12 |
| YTSSQKVSPIQIDGAERTWQDSDT [G16E] | 3.32 |
| YTSSQKVSPIQIDGAGRTWFDSDT [Q20F] | 2.62 |
| YTSSQGVSPIQIDGAGRTWQDSDT [K6G] | 3.42 |
| YTSSQKVSPIQLDGAGRTWQDSDT [I12L] | 3.29 |
| YTSSQNVSPIQIDGAGRTWQDSDT [K6N] | 3.97 |
| YTSSQKVSPIQIDGAGRVWQDSDT [T18V] | 3.29 |
| YTSSQKVSPIQIDGAGRTWQDSDY [T24Y] | 2.17 |
| YTSSQKVSPIQIDGALRTWQDSDT [G16L] | 3.07 |
| YTSSQKVSPIQIDGAGRTWQASDT [D21A] | 2.73 |
| YTSSQKVSPIQIDGAGTTWQDSDT [R17T] | 3.6 |
| ATSSQKVSPIQIDGAGRTWQDSDT [Y1A] | 3.7 |
| YTSSQKVSPIYIDGAGRTWQDSDT [Q11Y] | 2.2 |
| YTSSQKVSPIQIDGAGRTWTDSDT [Q20T] | 3.03 |
| YTSSQKVSPIQEDGAGRTWQDSDT [I12E] | 5 |
| YTSSQKVSPHQIDGAGRTWQDSDT [I10H] | 3.5 |
| YTSSQKVSPIQIDGAGRTWQDSPT [D23P] | 2.64 |
| YTSSQKVSPIQIDGYGRTWQDSDT [A15Y] | 2.91 |
| YTSSQMVSPIQIDGAGRTWQDSDT [K6M] | 3.6 |
